Each entry below carries its reported IC50.
- target.or.test.system: HLA-A*02:03
- protocol.notes: IEDB peptide-MHC binding, purified MHC/competitive/radioactivity; bounds were set here for any values at or beyond the usual limits of such assays
- condition.details: source organism: SARS-CoV1
value.type: IC50 (nM)

[[record]]
input_sequence = "TLGVYDYLV"
target_or_test_system = "HLA-A*02:03"
measured_number = 936

[[record]]
input_sequence = "VVHGYFTEV"
target_or_test_system = "HLA-A*02:03"
measured_number = 3.3

[[record]]
input_sequence = "RMVSLVTSFL"
target_or_test_system = "HLA-A*02:03"
measured_number = 12

[[record]]
input_sequence = "YVVVHGYFT"
target_or_test_system = "HLA-A*02:03"
measured_number = 792

[[record]]
input_sequence = "LMSFTILCLV"
target_or_test_system = "HLA-A*02:03"
measured_number = 91

[[record]]
input_sequence = "ILASFSAST"
target_or_test_system = "HLA-A*02:03"
measured_number = 5.3

[[record]]
input_sequence = "LLSAGIFGA"
target_or_test_system = "HLA-A*02:03"
measured_number = 15

[[record]]
input_sequence = "LMGHFSWWTA"
target_or_test_system = "HLA-A*02:03"
measured_number = 135

[[record]]
input_sequence = "MLFTKFFYL"
target_or_test_system = "HLA-A*02:03"
measured_number = 17

[[record]]
input_sequence = "YIFFASFYYI"
target_or_test_system = "HLA-A*02:03"
measured_number = 60

[[record]]
input_sequence = "KIILFLTLI"
target_or_test_system = "HLA-A*02:03"
measured_number = 4.9

[[record]]
input_sequence = "KLFTIAMWLL"
target_or_test_system = "HLA-A*02:03"
measured_number = 709

[[record]]
input_sequence = "FVFNGTSWFI"
target_or_test_system = "HLA-A*02:03"
measured_number = 2.2

[[record]]
input_sequence = "VIADYNYKL"
target_or_test_system = "HLA-A*02:03"
measured_number = 115

[[record]]
input_sequence = "MLLTFLTSLL"
target_or_test_system = "HLA-A*02:03"
measured_number = 7.3

